Each entry below carries its reported HepSE_hepatitis.
- Test system: Hepatotoxicity;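 also: Hepatitis-related hepatic side effect score taken from the training data of DILIps, a prediction system for drug-induced liver injury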; also: call rule not given here
- details: Liver
Lab note: jot down the number only; don't add units.

Known HepSE_hepatitis results, listed for orientation:
Challenge: Please list HepSE_hepatitis recorded for the molecule CC(=O)O[C@H]1C(=O)[C@@]2(C)[C@H]([C@H](OC(=O)c3ccccc3)[C@]3(O)C[C@H](OC(=O)[C@H](O)[C@@H](NC(=O)c4ccccc4)c4ccccc4)C(C)=C1C3(C)C)[C@]1(OC(C)=O)CO[C@@H]1C[C@@H]2O
Response given: 0

Challenge: Return reported HepSE_hepatitis. Input molecule: NCC(=O)O
Response given: 0

Challenge: Item CC(=O)[C@@]1(O)CC[C@H]2[C@@H]3C[C@H](C)C4=CC(=O)CC[C@]4(C)[C@H]3CC[C@@]21C : provide HepSE_hepatitis
Response given: 1

Challenge: Read off the recorded HepSE_hepatitis for NC1=NCC2c3ccccc3Cc3ccccc3N12 (centres undefined) [EPINASTINE]
Response given: 0

---
Challenge: Assign HepSE_hepatitis to the following record: O=C(O)Cc1ccccc1Nc1c(Cl)cccc1Cl
Response given: 1
